- Method Summary: Liver microsome stability, human
- Format: in vitro ADME
- Condition Label: human liver microsomes 0.5 mg/ml, 1 uM compound; read-out: Liver Microsomes (t1/2, minutes) Human
half-life at 1 uM values by entry

[
  {
    "Molecule": "O=C(NC1CC1OCCCc1ccccc1)C1CCC(O)CC1 (stereo not drawn) [Formula 34A]",
    "Readout Value": "> 145 min"
  },
  {
    "Molecule": "O=C(NC1CC1OCc1ccccc1)C1CCC(O)CC1 (stereo not drawn) [Formula 33A]",
    "Readout Value": "> 145 min"
  }
]

Switching to the query record.
Entry O=C(N[C@H]1C[C@@H]1OCCc1ccccc1)[C@H]1CC[C@H](O)CC1 [Formula 32A] ; half-life at 1 uM = > 145 min

meta.source: patent US12396968B2
